test system: IGROV1 ovarian; experiment: NCI tumour cell line growth inhibition, 48 h
Assignment: determine reported TGI for the given molecules.

molecule="COC(=O)c1ccc(C)cc1C1CN=NC12Cc1cc(C)ccc1C2=O (stereo not given)" value_measured="> 100 µM"

Could you tell me TGI for each of these molecules? They are listed below.
1. CC(=O)OCC1OC([Se-])C(OC(C)=O)C(OC(C)=O)C1OC(C)=O.N#CCC[PH+](CCC#N)CCC#N.[Au+] (stereo not given)
2. CS(=N)(=O)CCC(N)P(=O)(O)O (stereo not given)
3. COc1ncc(-c2ccc3nccc(C#CCN4CCN(S(C)(=O)=O)CC4)c3c2)cc1NS(=O)(=O)c1ccc(F)cc1F

1. > 81.6 µM
2. > 100 µM
3. 0.0333 µM

Could you tell me TGI for each of these molecules? They are listed below.
1. O=C(Oc1c(Br)cc(Br)cc1C(=O)Oc1ccccc1)C(=O)Oc1c(Br)cc(Br)cc1C(=O)Oc1ccccc1
2. O=C([O-])CCc1ccccc1.O=C([O-])CCc1ccccc1.O=C([O-])CCc1ccccc1.O=C([O-])CCc1ccccc1.[Mo+2].[Mo+2]
3. O=C(O)C1=CN(c2ccncc2)C(c2ccco2)=CC1c1ccccc1[N+](=O)[O-] (stereo not given)

["> 100 µM", "> 100 µM", "5.98 µM"]

Could you tell me TGI for each of these molecules? They are listed below.
1. CN(C)CC1CCCCCCCCCCCCC(CN(C)C)C1=O (stereo not given)
2. COc1ccc(/C=C/C(=O)c2ccc(Nc3nc(Nc4ccc(F)cc4)nc(Nc4ccc(Cl)cc4)n3)cc2)cc1
3. COc1ccc(-c2coc3cc(O)cc(O)c3c2=O)cc1
4. COc1ccc2[nH]c3c4c(cc(-c5ccccc5)c3c2c1)C(=O)N(c1ccccc1)C4=O
5. C=C(CN1CCN(c2ccccc2C(F)(F)F)CC1)c1ccc(C(=O)Nc2ccccc2N)cc1

1. 33.1 µM
2. > 100 µM
3. > 10 µM
4. > 100 µM
5. > 100 µM

Could you tell me TGI for each of these molecules? They are listed below.
1. O=C1CCSc2nc(-c3ccc4c(c3)OCO4)nn21
2. CC(C)OCc1cc(CN2CCN(c3cccc(Cl)c3)CC2)c(O)c2ncccc12
3. N#CCC1C2CC3C(C2=O)C13 (stereo not given)
4. CN1C(=O)CN2C(Cl)(Cl)C2(c2ccccc2)c2cc(Cl)ccc21 (stereo not given)

1. > 10 µM
2. 16.6 µM
3. > 100 µM
4. > 100 µM

Could you tell me TGI for each of these molecules? They are listed below.
1. COC1=CC(=O)OC(/C=C(C)/C=C/C2=C(C)CCCC2(C)C)C1 (stereo not given)
2. CCOC(=O)Nc1n[nH]nc1Cl
3. O=C(/C=C/c1nnc2n(Cc3ccccc3)c(=O)c3c4c(sc3n12)CCCC4)c1ccccc1
4. O=C(N/C=C/C=C/Sc1ccccc1)OCc1ccccc1

1. > 100 µM
2. > 100 µM
3. > 100 µM
4. 42.1 µM

----------
tested on: CCRF-CEM leukemia; test: NCI tumour cell line growth inhibition, 48 h; in the data active = GI50 below about 0.43 µM; inactive = the rest
Please reply with one of these outcomes: active, inactive

compound="CCN1C(=O)N(CC)C2C1NC(=S)N2/N=C/C=C/c1ccccc1OC (stereo unspecified)" assigned_class=active
compound=NC(=N\N=C/c1ccc(Cl)cc1Cl)/C(N)=N\N=C/c1ccc(Cl)cc1Cl assigned_class=inactive
compound="Cc1cc(C(O)(c2ccc(Nc3ccccc3)cc2)c2ccc(Nc3ccc(S(=O)(=O)O)cc3)cc2)ccc1N (stereo unspecified)" assigned_class=inactive

State the result this test recorded for `CCOC(=O)Nc1ccc2c(c1)N(C(=O)CCN(CC)CC)c1ccccc1S2` .
inactive

State the result this test recorded for `CC(C)OCc1cc(CN2CCN(c3cccc(Cl)c3)CC2)c(O)c2ncccc12` .
active

State the result this test recorded for `COc1cc2c3c(n(CCCN4CCCNCC4)c(=O)c2cc1OC)-c1cc2c(cc1C3=O)OCO2` .
active

State the result this test recorded for `O=c1[nH]c2ccccc2n2cc3ccccc3c12` .
inactive

State the result this test recorded for COc1ccc(C2CC(c3ccc4ccccc4c3)=NN2c2nc(O)c(C3=c4cc(OC)ccc4=NC3=O)s2)cc1 (stereo unspecified) .
active

State the result this test recorded for `Brc1ccc(Nc2nc3ccccc3nc2Nc2ccc(Br)cc2)cc1` .
inactive

State the result this test recorded for CCC(C)CC(C)C(=O)c1c(O)ccn(O)c1=O (stereo unspecified) .
inactive

State the result this test recorded for `C/C(=N\O)c1cccc(Nc2cc(-c3ccccc3)nc3c(O)cccc23)c1` .
inactive

Taken from PubChem BioAssay (NCI).
